Overview of recorded growth inhibition by drug alone for various compounds
System: U-2932
Assay Info: growth inhibition by drug alone (1 - RLU/untreated control) (fraction); higher = stronger inhibition
Experimental Context: 10 nM; time (day): 5; 177Lu-lilotomab satetraxetan 0 ug/ml
The answer should be a number; do not append a unit.

compound O=C(O)c1ccc2c(c1)nc(Nc1cccc(Cl)c1)c1ccncc12 [cx-4945 (Silmitasertib)] , growth inhibition by drug alone observed: -0.00497

====

Tested on: U-2932
Assay Info: growth inhibition by drug plus 177Lu-lilotomab satetraxetan (1 - RLU/untreated control) (fraction); higher = stronger inhibition
Experimental Context: 10 nM; time (day): 4; 177Lu-lilotomab satetraxetan 1 ug/ml
Classification by growth inhibition by drug plus 177Lu-lilotomab satetraxetan | ranges: lower: < 0.05; middle: ≥ 0.05 and < 0.09; upper: ≥ 0.09

Some entries whose results are on file:
GET /class?item= CC(NC(=O)c1ccccc1/N=C/c1c(O)ccc2ccccc12)c1ccccc1 (stereo not given) [Sirtinol]
middle

GET /class?item= O=C1CN2Cc3c(ccc(Cl)c3Cl)N=C2N1 [Anagrelide]
upper

GET /class?item= Cc1nc(-c2ccc(OCC(C)C)c(C#N)c2)sc1C(=O)O [Febuxostat (Uloric)]
middle

New cases:
GET /class?item= Cn1cc(-c2ccc3nnc(Sc4ccc5ncccc5c4)n3n2)cn1
upper

GET /class?item= CS(=O)(=O)c1cccc(CNc2nc(Nc3ccc4c(c3)CCC(=O)N4)ncc2C(F)(F)F)c1
middle

GET /class?item= CCCCCOC(=O)Nc1nc(=O)n([C@@H]2O[C@H](C)[C@@H](O)[C@H]2O)cc1F [Capecitabine (Xeloda)]
lower

GET /class?item= Nc1cccc2c1C(=O)N(C1CCC(=O)NC1=O)C2=O (stereo not given) [Pomalidomide]
lower

GET /class?item= Cn1cnc2c(F)c(Nc3ccc(Br)cc3Cl)c(C(=O)NOCCO)cc21 [AZD6244 (Selumetinib)]
middle

GET /class?item= Cc1cc(O)c2c(c1)C(=O)c1cccc(O)c1C2=O [Chrysophanic acid (Chrysophanol)]
lower

====

Overview of recorded growth inhibition by drug alone for various molecules
Tested on: U-2932
Assay Info: growth inhibition by drug alone (1 - RLU/untreated control) (fraction); higher = stronger inhibition
Experimental Context: 10 nM; time (day): 6; 177Lu-lilotomab satetraxetan 0 ug/ml
Structures can show the parent of a compound that is named as a salt.

Worked set:
molecule O=c1[nH]cc(F)c(=O)[nH]1 [Adrucil (Fluorouracil)] , growth inhibition by drug alone observed: -0.211

molecule OC[C@H]1O[C@@H](n2cnc3c2N=CNC[C@H]3O)C[C@@H]1O [Pentostatin] , growth inhibition by drug alone observed: -0.114

molecule Cc1cn(-c2cc(NC(=O)c3ccc(C)c(Nc4nccc(-c5cccnc5)n4)c3)cc(C(F)(F)F)c2)cn1 [Nilotinib (AMN-107)] , growth inhibition by drug alone observed: -0.187

New cases:
molecule Cc1nc(-c2ccc(OCC(C)C)c(C#N)c2)sc1C(=O)O [Febuxostat (Uloric)] , growth inhibition by drug alone observed: -0.0354

molecule CO[C@H]1C[C@@H]2CC[C@@H](C)[C@@](O)(O2)C(=O)C(=O)N2CCCC[C@H]2C(=O)O[C@H]([C@H](C)C[C@@H]2CC[C@@H](O)[C@H](OC)C2)CC(=O)[C@H](C)/C=C(\C)[C@@H](O)[C@@H](OC)C(=O)[C@H](C)C[C@H](C)/C=C/C=C/C=C/1C [Rapamycin (Sirolimus)] , growth inhibition by drug alone observed: 0.544

molecule COC1=CC(c2cc3ccccc3[nH]2)=N/C1=C\c1[nH]c(C)cc1C [Obatoclax mesylate (GX15-070)] , growth inhibition by drug alone observed: -0.127

molecule CNC(=O)c1ccccc1Sc1ccc2c(/C=C/c3ccccn3)n[nH]c2c1 [Axitinib] , growth inhibition by drug alone observed: -0.0205

====

Overview of recorded growth inhibition by drug alone for various molecules
Tested on: RIVA
Assay Info: growth inhibition by drug alone (1 - RLU/untreated control) (fraction); higher = stronger inhibition
Experimental Context: 100 nM; time (day): 3; 177Lu-lilotomab satetraxetan 0 ug/ml
The answer should be a number; do not append a unit.

Worked set:
// molecule O=C1[C@H](CC[C@H](O)c2ccc(F)cc2)[C@@H](c2ccc(O)cc2)N1c1ccc(F)cc1 [Ezetimibe (Zetia)] , assay RIVA, growth inhibition by drug alone value: -0.17

// molecule Cc1nc(-c2ccc(OCC(C)C)c(C#N)c2)sc1C(=O)O [Febuxostat (Uloric)] , assay RIVA, growth inhibition by drug alone value: 0.158

// molecule Nc1[nH]nc2nnc(-c3c(-c4ccccc4)nn4ccccc34)cc12 , assay RIVA, growth inhibition by drug alone value: -0.0641

New cases:
// molecule COc1ccc2c3n(c(=NC(=O)c4cccnc4)nc2c1OC)CCN3 , assay RIVA, growth inhibition by drug alone value: 0.0975

// molecule COc1cc2c(cc1OC)CN(CCc1ccc(NC(=O)c3cccc4c(=O)c5cccc(OC)c5[nH]c34)cc1)CC2 [Elacridar] , assay RIVA, growth inhibition by drug alone value: -0.21

====

System: U-2932
Assay Info: growth inhibition by drug plus 177Lu-lilotomab satetraxetan (1 - RLU/untreated control) (fraction); higher = stronger inhibition
Experimental Context: 10 nM; time (day): 6; 177Lu-lilotomab satetraxetan 1 ug/ml
Classify as follows. Reported growth inhibition by drug plus 177Lu-lilotomab satetraxetan greater than or equal to 0.2: MET. Reported growth inhibition by drug plus 177Lu-lilotomab satetraxetan below: NOT MET.

Some entries whose results are on file:
Would you say O=C(CCCCCCC(=O)Nc1cccnc1)NO [Pyroxamide] shows growth inhibition by drug plus 177Lu-lilotomab satetraxetan at minimum 0.2?
NOT MET

Would you say O=C(Nc1cccc(Cl)c1)Nc1ncc(CCNc2ncnc3ccsc23)s1 shows growth inhibition by drug plus 177Lu-lilotomab satetraxetan at minimum 0.2?
MET

New cases:
Would you say O=c1c(O)c(-c2ccc(O)c(O)c2)oc2cc(O)cc(O)c12 [Quercetin (Sophoretin)] shows growth inhibition by drug plus 177Lu-lilotomab satetraxetan at minimum 0.2?
MET

Would you say CCN(CC)CCCC(C)Nc1nc(C)cc(Nc2ccc3nc(C)cc(N)c3c2)n1 (stereo unspecified) shows growth inhibition by drug plus 177Lu-lilotomab satetraxetan at minimum 0.2?
NOT MET

Would you say Cc1nnc(C(C)C)n1C1C[C@H]2CC[C@@H](C1)N2CC[C@H](NC(=O)C1CCC(F)(F)CC1)c1ccccc1 (stereo in doubt) [Maraviroc] shows growth inhibition by drug plus 177Lu-lilotomab satetraxetan at minimum 0.2?
MET

Would you say CCn1c(-c2nonc2N)nc2c(C#CC(C)(C)O)ncc(OC[C@H]3CCCNC3)c21 shows growth inhibition by drug plus 177Lu-lilotomab satetraxetan at minimum 0.2?
NOT MET

Would you say CC[C@@H]1C(=O)N(C)c2cnc(Nc3ccc(C(=O)N[C@H]4CC[C@H](N5CCN(CC6CC6)CC5)CC4)cc3OC)nc2N1C(C)C [BI6727 (Volasertib)] shows growth inhibition by drug plus 177Lu-lilotomab satetraxetan at minimum 0.2?
MET

Would you say O=C(CCCCCCC(=O)Nc1ccccc1)NO [Vorinostat (SAHA)] shows growth inhibition by drug plus 177Lu-lilotomab satetraxetan at minimum 0.2?
NOT MET

====

System: RIVA
Assay Info: growth inhibition by drug alone (1 - RLU/untreated control) (fraction); higher = stronger inhibition
Experimental Context: 100 nM; time (day): 6; 177Lu-lilotomab satetraxetan 0 ug/ml
Overview of recorded growth inhibition by drug alone for various molecules
The answer should be a number; do not append a unit.

Worked set:
molecule COc1cc(Nc2ncc(F)c(Nc3ccc4c(n3)N(COP(=O)(O)O)C(=O)C(C)(C)O4)n2)cc(OC)c1OC , growth inhibition by drug alone observed: -0.168

molecule CCOc1cc(C(=O)Nc2ccc(Cl)c(-c3nc4ccccc4[nH]3)c2)cc(OCC)c1OCC , growth inhibition by drug alone observed: 0.167

molecule O=C(O)c1ccc2c(c1)nc(Nc1cccc(Cl)c1)c1ccncc12 [cx-4945 (Silmitasertib)] , growth inhibition by drug alone observed: -0.111

// switching to the query molecule
molecule CC1(CN2CCC(n3c(=O)[nH]c4ccccc43)CC2)OCc2ccccc2-n2cccc21 (centres undefined) , growth inhibition by drug alone observed: -0.374

====

Tested on: RIVA
Assay Info: growth inhibition by drug alone (1 - RLU/untreated control) (fraction); higher = stronger inhibition
Experimental Context: 10 nM; time (day): 6; 177Lu-lilotomab satetraxetan 0 ug/ml
Overview of recorded growth inhibition by drug alone for various compounds
The answer should be a number; do not append a unit.

compound Cc1nn(-c2ccccc2)c(C)c1C=NN1CCN(Cc2ccccc2)CC1 , growth inhibition by drug alone observed: -0.467

compound Cc1ccc(-c2csc3ncnc(SCCC(=O)O)c23)cc1 , growth inhibition by drug alone observed: -0.425

compound CCN(CC)CCNC(=O)c1c(C)[nH]c(/C=C2\C(=O)Nc3ccc(F)cc32)c1C [Sunitinib Malate (Sutent)] , growth inhibition by drug alone observed: -0.511

compound CS(=O)(=O)CCNCc1ccc(-c2ccc3ncnc(Nc4ccc(OCc5cccc(F)c5)c(Cl)c4)c3c2)o1 [Lapatinib Ditosylate (Tykerb)] , growth inhibition by drug alone observed: -0.295

compound C[C@]12CCC(=O)C=C1CC[C@@H]1[C@@H]2[C@@H](O)C[C@@]2(C)[C@H]1CC[C@]2(O)C(=O)CO [Hydrocortisone (Cortisol)] , growth inhibition by drug alone observed: -0.593

New cases:
compound N#Cc1ccc(COC[C@H]2O[C@@H](n3c(NCc4ccc(Cl)c(Cl)c4)nc4c(N)ncnc43)[C@H](O)[C@@H]2O)cc1 , growth inhibition by drug alone observed: -0.465

compound O=C1c2ccccc2-c2nc3nonc3nc21 , growth inhibition by drug alone observed: -0.811

compound Cn1cc(-c2ccc3nnc(Sc4ccc5ncccc5c4)n3n2)cn1 , growth inhibition by drug alone observed: -0.227
